// data source = paper PMC5540273

Documented %Inh across a set of compounds
# Test system: DYRK1A;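 note: KINOMEscan kinase panel screen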
# Assay context: concentration: 1 μM, replicates: in singlicate; n = 1
Write the number in % without appending the unit.

These recorded examples may help you get a feel for the data.
N#Cc1cnc2cc(-c3cnc(CNCCN4CCOCC4)s3)ccc2c1Nc1ccc(Oc2ccccc2)cc1 : 38
CC(C)c1nc(-c2cccc(NS(=O)(=O)c3c(F)cccc3F)c2)c(-c2ccnc(Nc3ccc(N4CCOCC4)nc3)n2)s1.Cl : 39
COc1ccc(NC(=O)c2ccoc2)cc1-c1ccc(C(=O)NCC2CC2)cc1 : 0
O=C(O)C(F)(F)F.O=c1[nH]ccc2nc(N[C@@H]3CCNC3)nc(Nc3ccc4c(c3)S(=O)(=O)CC4)c12 : 35
Cl.Cl.NC(CNC(=O)c1cc(Br)c(-c2ccnc3[nH]ccc23)s1)c1ccccc1 (stereo not drawn) : 84
COC(=O)Nc1nc2cc(Oc3ccc(NC(=O)Nc4cccc(SC)c4)cc3)ccc2[nH]1.Cl : 12
COC(=O)Nc1nc2ccc(Oc3ccc(NC(=O)Nc4cc(C(F)(F)F)ccc4F)cc3)cc2[nH]1.Cl : 13
COC(=O)Nc1nc2ccc(Oc3ccc(CC(=O)Nc4cc(C(F)(F)F)ccc4F)cc3)cc2[nH]1 : 13
CN(C)CCNS(=O)(=O)c1ccc(-c2ccnc3[nH]ccc23)cc1 : 69
Cc1nn2c(=O)cc(N3CCO[C@H](C)C3)nc2n1Cc1cccc(Cl)c1Cl : 48

*Q* I would be grateful if you could share the reported %Inh for `COc1ccc(C)c(Nc2ccnc(Nc3ccc(-c4cnc[nH]4)cc3)n2)c1.Cl` .
*A* 0

*Q* // same read-out, input: `Cn1cc(-c2cnc(N)c3c(-c4ccc5c(c4)CCN5C(=O)Cc4ccccc4)csc23)cn1`
*A* 0

*Q* Another: `Cc1ccc(NC(=O)c2ccc(Cl)c(Cl)c2)cc1-c1ccc(C(=O)Nc2ccncc2)cc1`
*A* 14

*Q* Would you kindly repeat that for `Cc1ccc(NC(=O)c2ccnc(N3CCCCC3)c2)cc1-c1ccc(C(=O)NCC2CC2)cc1` ?
*A* 40

*Q* Now this one: CC(C)NCC(Cc1ccccc1)NC(=O)c1cc(Br)c(-c2ccnc3[nH]ccc23)s1.Cl.Cl (stereo not drawn)
*A* 17

*Q* Now this one: `Nc1ncc(-c2ccc3nccc(-c4ccncc4)c3c2)cc1S(=O)(=O)N1CCCCC1`
*A* 8

*Q* And for `O=C(Nc1n[nH]c2nc(-c3ccccc3)ccc12)C1CC1` ?
*A* 15

*Q* Another: NCCC(NC(=O)c1cc(Br)c(-c2ccnc3[nH]ccc23)s1)c1ccccc1.O=C(O)C(F)(F)F.O=C(O)C(F)(F)F (stereo not drawn)
*A* 44

*Q* What do you have for `Cc1ccccc1CC(=O)N1CCc2cc(-c3cn(C)c4ncnc(N)c34)ccc21` ?
*A* 17

*Q* Follow-up item: `CS(=O)(=O)c1cccc(CNc2nc(Nc3ccc4c(c3)CCC(=O)N4)ncc2C(F)(F)F)c1`
*A* 85

*Q* What would you report for `Cn1cc(-c2ccc3c(c2)CCN3C(=O)Cc2cc(F)cc(F)c2F)c2c(N)ncnc21` ?
*A* 16

*Q* Quick one: `Nc1ncnc2scc(-c3ccc(NC(=O)Cc4cc(F)ccc4F)cc3)c12.O=C(O)C(F)(F)F`
*A* 12

*Q* Can you check `CC(=O)Nc1cn2nc(Oc3cccc(NC(=O)c4cccc(C(F)(F)F)c4)c3)ccc2n1` next?
*A* 0

*Q* `COc1cccc(-c2nc(-c3ccccc3)[nH]c2-c2ccncc2)c1` ?
*A* 22
